- Test system: E. coli ST131
- assay_conditions: MIC of rifampicin combined with the labelled peptidomimetic
measurement_type: Antibiotic MIC in combination (RIF)
The reply should read as a number followed by its unit.

The compound listed as C[C@@H](c1ccccc1)N(CCC(N)=O)C(=O)[C@H](CCCCNC(=N)N)NC(=O)CCN(C(=O)[C@H](CCCCN)NC(=O)CCN(C(=O)[C@H](CCCCNC(=N)N)NC(=O)CCN(C(=O)[C@H](CCCCN)NC(=O)CCN(C(=O)[C@H](CCCCNC(=N)N)NC(=O)CCN(C(=O)[C@H](CCCCN)NC(=O)CNCCCNCCCCNCCCN)[C@@H](C)c1ccccc1)[C@@H](C)c1ccccc1)[C@@H](C)c1ccccc1)[C@@H](C)c1ccccc1)[C@@H](C)c1ccccc1 has a reported Antibiotic MIC in combination (RIF) of 0.5 mg/L
